# credit: patent US11168054B2

# experimentalSystem: ligand-binding domain of the human VDR linked to the DNA-binding domain of the yeast transcription factor GAL4 (Homo sapiens)
# Construct: expressed in transfected cells; host or cells: HEK293
# Sequence (P11473 127-423 limits assumed): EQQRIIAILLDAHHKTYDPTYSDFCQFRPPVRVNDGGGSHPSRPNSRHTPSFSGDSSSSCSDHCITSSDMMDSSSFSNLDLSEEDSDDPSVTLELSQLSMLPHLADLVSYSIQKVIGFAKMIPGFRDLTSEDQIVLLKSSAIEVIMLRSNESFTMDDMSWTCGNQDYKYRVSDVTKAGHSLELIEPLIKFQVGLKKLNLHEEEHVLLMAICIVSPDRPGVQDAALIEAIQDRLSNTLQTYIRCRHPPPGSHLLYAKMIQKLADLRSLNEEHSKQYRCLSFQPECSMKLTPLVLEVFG
# procedureSummary: Human vitamin D receptor (VDR) agonist activity, cell based GAL4 hybrid luciferase transactivation assay
# conditionLabel: HEK293 cells transiently transfected with VDR-LBD/GAL4 hybrid receptor and pFR-Luc reporter; 16 h incubation; luciferase luminescence; read-out: Effective concentrations of half maximal activation (EC50)
pEC50: −log10 of the molar value.
measurementLabel: pEC50

> print(dat)
                                   compound   val
1  CC/C(=C\C=C\C(O)(CC)CC)c1cccc(CCc2ccc3c(c2)C(O)CC3O)c1 (stereo not shown) [I-c]  7.31

A: CC/C(=C\C=C\C(O)(CC)CC)c1cccc(CCc2ccc3c(c2)C(O)C(C)C3O)c1 (stereo not shown) [I-b]
B: CC/C(=C\C=C\C(O)(CC)CC)c1cccc(CCc2ccc3c(c2)C(O)C(C)(C)C3O)c1 (stereo not shown) [I-a]
C: CCCC1C(O)c2ccc(CCc3cccc(/C(=C/C=C/C(O)(CC)CC)CC)c3)cc2C1O (stereo not shown) [Comp1, reference compound]
*Q* Task for the reader: rank each entry by its pEC50, from the minimum upward. Give the order by naming the labels one after another as requested.
*A* C, A, B
